# protocolNotes: Study .5: single dose study in healthy Japanese volunteers, pharmacokinetic parameters
# Type: in vivo, human
# conditionSet: human, plasma, oral, 25 mg, 25 mg single dose, Study .5, fasted; read-out: AUC0-inf Mean
measureName: AUC(0-inf)

Returns the measured AUC(0-inf) for the input compound. Input: OC[C@H]1O[C@@H](c2ccc(Cl)c(Cc3ccc(O[C@H]4CCOC4)cc3)c2)[C@H](O)[C@@H](O)[C@@H]1O
6.18 µM·h

----------
# protocolNotes: Study .1: single dose study in healthy volunteers, pharmacokinetic parameters
# Assay type: in vivo, human
# conditionSet: human, plasma, oral, 50 mg, 50 mg single dose, Study .1, fasted; read-out: Cmax Mean
measureName: Cmax
I'd appreciate it if you wrote the number followed by its unit.

Returns the measured Cmax for the input molecule. Input: OC[C@H]1O[C@@H](c2ccc(Cl)c(Cc3ccc(O[C@H]4CCOC4)cc3)c2)[C@H](O)[C@@H](O)[C@@H]1O
1110 nM
